target: T1, AAPSSWGPRPRRK-Biotin (human); experiment: peptide scanning ELISA, biotin peptide on streptavidin
T1 construct: Overlapping peptide of the outer loop of human LAG-3; also called LAG-3 Extra cyclic peptide
T1 peptide: AAPSSWGPRPRRK-{Biotin′}
Primed or numbered codes have the meaning given here. No end group written: not given here. Biotin′ = biotin label at the C-terminus

>  <binder>
405B8H3 (mouse antibody purified from hybridoma) (antibody, V domains shown, also called mAb103-405B8H3; 405B81-13) VH: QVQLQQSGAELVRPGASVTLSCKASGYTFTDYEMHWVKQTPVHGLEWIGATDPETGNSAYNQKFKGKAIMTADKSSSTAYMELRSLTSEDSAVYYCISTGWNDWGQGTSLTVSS VL: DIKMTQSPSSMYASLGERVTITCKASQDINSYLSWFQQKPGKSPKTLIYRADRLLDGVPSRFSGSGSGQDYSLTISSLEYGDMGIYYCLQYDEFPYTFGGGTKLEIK

>  <binding result>
binds

$$$$
>  <binder>
409B11E12 (mouse antibody purified from hybridoma) (antibody, V domains shown, also called mAb104-409B11E12) VH: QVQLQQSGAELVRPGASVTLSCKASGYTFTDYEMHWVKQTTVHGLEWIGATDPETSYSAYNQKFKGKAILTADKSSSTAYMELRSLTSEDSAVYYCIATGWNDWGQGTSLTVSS VL: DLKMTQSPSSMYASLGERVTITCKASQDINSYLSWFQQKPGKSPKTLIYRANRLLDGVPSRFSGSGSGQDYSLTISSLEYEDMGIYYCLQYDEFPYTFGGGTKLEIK

>  <binding result>
binds

$$$$
>  <binder>
409D4E10 (mouse antibody purified from hybridoma) (antibody, V domains shown, also called mAb112-409D4E10) VH: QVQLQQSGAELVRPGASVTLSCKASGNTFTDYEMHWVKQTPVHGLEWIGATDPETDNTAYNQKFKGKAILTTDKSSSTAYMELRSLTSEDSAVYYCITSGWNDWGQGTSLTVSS VL: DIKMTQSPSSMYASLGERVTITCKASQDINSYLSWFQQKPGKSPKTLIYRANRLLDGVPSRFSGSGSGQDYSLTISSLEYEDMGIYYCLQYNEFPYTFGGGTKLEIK

>  <binding result>
binds

$$$$

Ref: patent US20210155689A1
